src = ChEMBL document CHEMBL2413072

# TGI per entry
Test system: SN12C
Test: Growth inhibition of human SN12C cells by sulforhodamine B assay
Format: functional
Conditions: read-out: pTGI (converted)
metric: TGI

[[record]]
smiles_data = "CC(C)=CC(=O)O[C@@H]1CC(C)(C)C[C@H]2C3=CC[C@@H]4[C@@]5(C)CCC(=O)C(C)(C)[C@@H]5CC[C@@]4(C)[C@]3(C)CC[C@@]12C(=O)O"
metric = "TGI"
reported_measurement = "21.9 µM"

[[record]]
smiles_data = "C/C=C(/C)C(=O)O[C@@H]1CC(C)(C)C[C@H]2C3=CC[C@@H]4[C@@]5(C)CC[C@H](O)C(C)(C)[C@@H]5CC[C@@]4(C)[C@]3(C)CC[C@@]12C(=O)O"
metric = "TGI"
reported_measurement = "3.47 µM"

[[record]]
smiles_data = "C/C=C(/C)C(=O)O[C@@H]1CC(C)(C)C[C@H]2C3=CC[C@@H]4[C@@]5(C)CCC(=O)C(C)(C)[C@@H]5CC[C@@]4(C)[C@]3(C)CC[C@@]12C(=O)O"
metric = "TGI"
reported_measurement = "> 100 µM"

[[record]]
smiles_data = "CC1(C)C[C@@H](O)[C@]2(C(=O)O)CC[C@]3(C)C(=CC[C@@H]4[C@@]5(C)C/C(=C\\C=C\\c6ccccc6)C(=O)C(C)(C)[C@@H]5CC[C@]43C)[C@@H]2C1"
metric = "TGI"
reported_measurement = "10.7 µM"

[[record]]
smiles_data = "CC(C)=CC(=O)O[C@@H]1CC(C)(C)C[C@H]2C3=CC[C@@H]4[C@@]5(C)CC[C@H](O)C(C)(C)[C@@H]5CC[C@@]4(C)[C@]3(C)CC[C@@]12C(=O)O"
metric = "TGI"
reported_measurement = "11 µM"


###

System: SK-MEL-28
Assay: Growth inhibition of human SK-MEL-28 cells assessed as cell growth at 10^-4 M by sulforhodamine B assay
Format: functional
Details: read-out: Activity
Hi! Just check whether growth at 100 µM is below -40%. Below gives True, equal or above gives False.

[[record]]
molecule = "CC(C)=CC(=O)O[C@@H]1CC(C)(C)C[C@H]2C3=CC[C@@H]4[C@@]5(C)CC[C@H](O)C(C)(C)[C@@H]5CC[C@@]4(C)[C@]3(C)CC[C@@]12C(=O)O [Reduced Lantadene B]"
category = "True"

[[record]]
molecule = "C/C=C(/C)C(=O)O[C@@H]1CC(C)(C)C[C@H]2C3=CC[C@@H]4[C@@]5(C)CCC(=O)C(C)(C)[C@@H]5CC[C@@]4(C)[C@]3(C)CC[C@@]12C(=O)O [LANTADENE A]"
category = "False"

[[record]]
molecule = "CC1(C)C[C@@H](O)[C@]2(C(=O)O)CC[C@]3(C)C(=CC[C@@H]4[C@@]5(C)C/C(=C\\C=C\\c6ccccc6)C(=O)C(C)(C)[C@@H]5CC[C@]43C)[C@@H]2C1"
category = "True"

[[record]]
molecule = "CC(C)=CC(=O)O[C@@H]1CC(C)(C)C[C@H]2C3=CC[C@@H]4[C@@]5(C)CCC(=O)C(C)(C)[C@@H]5CC[C@@]4(C)[C@]3(C)CC[C@@]12C(=O)O"
category = "False"


###

System: IGROV-1
Experiment: Growth inhibition of human IGROV1 cells assessed as cell growth at 10^-6 M by sulforhodamine B assay
Type: functional
Settings: read-out: Activity
# growth at 1 µM per entry
metric: growth at 1 µM (%)

[[record]]
compound = "C/C=C(/C)C(=O)O[C@@H]1CC(C)(C)C[C@H]2C3=CC[C@@H]4[C@@]5(C)CCC(=O)C(C)(C)[C@@H]5CC[C@@]4(C)[C@]3(C)CC[C@@]12C(=O)O [LANTADENE A]"
tested_on = "IGROV-1"
metric = "growth at 1 µM"
reported_measurement = 108

[[record]]
compound = "CC(C)=CC(=O)O[C@@H]1CC(C)(C)C[C@H]2C3=CC[C@@H]4[C@@]5(C)CCC(=O)C(C)(C)[C@@H]5CC[C@@]4(C)[C@]3(C)CC[C@@]12C(=O)O"
tested_on = "IGROV-1"
metric = "growth at 1 µM"
reported_measurement = 98

[[record]]
compound = "CC1(C)C[C@@H](O)[C@]2(C(=O)O)CC[C@]3(C)C(=CC[C@@H]4[C@@]5(C)C/C(=C\\C=C\\c6ccccc6)C(=O)C(C)(C)[C@@H]5CC[C@]43C)[C@@H]2C1"
tested_on = "IGROV-1"
metric = "growth at 1 µM"
reported_measurement = 113

[[record]]
compound = "CC(C)=CC(=O)O[C@@H]1CC(C)(C)C[C@H]2C3=CC[C@@H]4[C@@]5(C)CC[C@H](O)C(C)(C)[C@@H]5CC[C@@]4(C)[C@]3(C)CC[C@@]12C(=O)O [Reduced Lantadene B]"
tested_on = "IGROV-1"
metric = "growth at 1 µM"
reported_measurement = 101

[[record]]
compound = "C/C=C(/C)C(=O)O[C@@H]1CC(C)(C)C[C@H]2C3=CC[C@@H]4[C@@]5(C)CC[C@H](O)C(C)(C)[C@@H]5CC[C@@]4(C)[C@]3(C)CC[C@@]12C(=O)O [Reduced Lantadene A]"
tested_on = "IGROV-1"
metric = "growth at 1 µM"
reported_measurement = 111


###

Tested on: SW-620
Assay: Growth inhibition of human SW620 cells by sulforhodamine B assay
Type: functional
Settings: read-out: GI50
metric: GI50 (µM)

[[record]]
compound = "C/C=C(/C)C(=O)O[C@@H]1CC(C)(C)C[C@H]2C3=CC[C@@H]4[C@@]5(C)CC[C@H](O)C(C)(C)[C@@H]5CC[C@@]4(C)[C@]3(C)CC[C@@]12C(=O)O [Reduced Lantadene A]"
tested_on = "SW-620"
metric = "GI50"
unit_string = "µM"
reported_measurement = 2.31

[[record]]
compound = "CC(C)=CC(=O)O[C@@H]1CC(C)(C)C[C@H]2C3=CC[C@@H]4[C@@]5(C)CC[C@H](O)C(C)(C)[C@@H]5CC[C@@]4(C)[C@]3(C)CC[C@@]12C(=O)O [Reduced Lantadene B]"
tested_on = "SW-620"
metric = "GI50"
unit_string = "µM"
reported_measurement = 5.69

[[record]]
compound = "C/C=C(/C)C(=O)O[C@@H]1CC(C)(C)C[C@H]2C3=CC[C@@H]4[C@@]5(C)CCC(=O)C(C)(C)[C@@H]5CC[C@@]4(C)[C@]3(C)CC[C@@]12C(=O)O [LANTADENE A]"
tested_on = "SW-620"
metric = "GI50"
unit_string = "µM"
reported_measurement = 4.48

[[record]]
compound = "CC1(C)C[C@@H](O)[C@]2(C(=O)O)CC[C@]3(C)C(=CC[C@@H]4[C@@]5(C)C/C(=C\\C=C\\c6ccccc6)C(=O)C(C)(C)[C@@H]5CC[C@]43C)[C@@H]2C1"
tested_on = "SW-620"
metric = "GI50"
unit_string = "µM"
reported_measurement = 3.39

[[record]]
compound = "CC(C)=CC(=O)O[C@@H]1CC(C)(C)C[C@H]2C3=CC[C@@H]4[C@@]5(C)CCC(=O)C(C)(C)[C@@H]5CC[C@@]4(C)[C@]3(C)CC[C@@]12C(=O)O"
tested_on = "SW-620"
metric = "GI50"
unit_string = "µM"
reported_measurement = 4


###

System: HT-29
Assay: Growth inhibition of human HT-29 cells assessed as cell growth at 10 uM by sulforhodamine B assay
Type: functional
Conditions: read-out: Activity
// label = yes (1) if growth at 10 µM is not less than 70%, otherwise no (0)

[[record]]
compound = "CC(C)=CC(=O)O[C@@H]1CC(C)(C)C[C@H]2C3=CC[C@@H]4[C@@]5(C)CCC(=O)C(C)(C)[C@@H]5CC[C@@]4(C)[C@]3(C)CC[C@@]12C(=O)O"
category = "no (0)"

[[record]]
compound = "CC(C)=CC(=O)O[C@@H]1CC(C)(C)C[C@H]2C3=CC[C@@H]4[C@@]5(C)CC[C@H](O)C(C)(C)[C@@H]5CC[C@@]4(C)[C@]3(C)CC[C@@]12C(=O)O [Reduced Lantadene B]"
category = "no (0)"

[[record]]
compound = "COc1cc(/C=C2\\C[C@]3(C)[C@H]4CC=C5[C@@H]6CC(C)(C)C[C@@H](O)[C@]6(C(=O)O)CC[C@@]5(C)[C@]4(C)CC[C@H]3C(C)(C)C2=O)ccc1O"
category = "yes (1)"

[[record]]
compound = "CC1(C)C[C@@H](O)[C@]2(C(=O)O)CC[C@]3(C)C(=CC[C@@H]4[C@@]5(C)CC[C@H](O)C(C)(C)[C@@H]5CC[C@]43C)[C@@H]2C1"
category = "yes (1)"

[[record]]
compound = "CC1(C)C[C@@H](O)[C@]2(C(=O)O)CC[C@]3(C)C(=CC[C@@H]4[C@@]5(C)C/C(=C\\C=C\\c6ccccc6)C(=O)C(C)(C)[C@@H]5CC[C@]43C)[C@@H]2C1"
category = "no (0)"

[[record]]
compound = "CC1(C)C[C@@H](O)[C@]2(C(=O)O)CC[C@]3(C)C(=CC[C@@H]4[C@@]5(C)CCC(=O)C(C)(C)[C@@H]5CC[C@]43C)[C@@H]2C1"
category = "yes (1)"

[[record]]
compound = "C/C=C(/C)C(=O)O[C@@H]1CC(C)(C)C[C@H]2C3=CC[C@@H]4[C@@]5(C)CC[C@H](O)C(C)(C)[C@@H]5CC[C@@]4(C)[C@]3(C)CC[C@@]12C(=O)O [Reduced Lantadene A]"
category = "no (0)"

